Entry source: patent US20170304388A1

Kindly supply the reported viability at 10 µM values for the records listed here.
System: A375 (Amelanotic Melanoma)
Procedure summary: Cell viability analysis (WST-1), A375
Format: cell-based
Experimental parameters: Homo sapiens, A-375, 72 h, Table 3, drug 10 μM, WST-1, OD450 nm, lower viability = better inhibition, read-out: survival rate (viability) of cancer cells, A375
Structures can show the parent of a compound that is named as a salt.
Kindly provide the numeric value in % only, without the unit symbol.

# lookup: viability at 10 µM of CCC(C)(C)C(=O)O[C@H]1C[C@@H](C)C=C2C=C[C@H](C)[C@H](CC[C@@H]3C[C@@H](O)CC(=O)O3)[C@H]21 [Simvastatin (Zocor), Simvastatin]
114

# query: viability at 10 µM of entry CC(C)NC[C@H](O)COc1ccc(CCOCC2CC2)cc1 [Levobetaxolol HCl]
76.9

For CCOC(=O)[C@H](CCc1ccccc1)N[C@H]1CCc2ccccc2N(CC(=O)O)C1=O [Benazepril hydrochloride] , what is its reported viability at 10 µM?
104

Consider the compound shown here: NCCCCCC(=O)O [Aminocaproic acid (Amicar), Aminocaproic acid] What is its recorded viability at 10 µM?
123

Fill in the blank: the reported viability at 10 µM of CCN(CC)CCOC(=O)C(c1ccccc1)c1ccccc1 [Adiphenine HCl] is ____.
87.6

Please report the recorded viability at 10 µM for CCCSc1nc(N[C@@H]2C[C@H]2c2ccc(F)c(F)c2)c2nnn([C@@H]3C[C@H](OCCO)[C@@H](O)[C@H]3O)c2n1 [Ticagrelor] .
60.1

Please look up its viability at 10 µM: Cc1cccc(Nc2ccccc2C(=O)O)c1C [Mefenamic acid]
78.7

Field request: viability at 10 µM | item: CC(C)NCC(O)COc1ccc(COCCOC(C)C)cc1 (stereo not shown) [Bisoprolol]
117

Suppose we examine the compound NS(=O)(=O)c1cc2c(cc1Cl)NC(C(Cl)Cl)NS2(=O)=O (stereo not shown) [Trichlormethiazide (Achletin), Trichlormethiazide] ; what viability at 10 µM value has been reported?
128

For COCCCOc1cc(C[C@@H](C[C@H](N)[C@@H](O)C[C@H](C(=O)NCC(C)(C)C(N)=O)C(C)C)C(C)C)ccc1OC [Aliskiren hemifumarate] , what is its reported viability at 10 µM?
91.2

Reported viability at 10 µM, compound CO[C@@H]1[C@@H](OC(N)=O)[C@@H](O)[C@H](Oc2ccc3c(O)c(NC(=O)c4ccc(O)c(CC=C(C)C)c4)c(=O)oc3c2C)OC1(C)C [Novobiocin sodium (Albamycin), Novobiocin sodium] : ____
93.4

# query: viability at 10 µM of entry O=C(O)c1cc(=O)c2ccccc2o1 [Chromocarb]
63.4

Fill in: viability at 10 µM of CC(=O)NS(=O)(=O)c1ccc(N)cc1 [sulfacetamide sodium] is ___
64.9

What value of viability at 10 µM has been reported for the following compound? Cc1cnc(C(=O)O)c[n+]1[O-] [Acipimox]
124

# query: viability at 10 µM of entry Clc1ccccc1CN1CCc2sccc2C1 [Ticlopidine HCl]
86.5

Looking for the measured viability at 10 µM of CC(=O)Oc1ccc(C(c2ccc(OC(C)=O)cc2)c2ccccn2)cc1 [Bisacodyl] , can you help?
88

* * *

Test system: A375 (Amelanotic Melanoma)
Procedure summary: Cell viability analysis (WST-1), A375
Assay type: cell-based
Experimental parameters: Table 4, repeated experiments; drug 10 μM, 72 hours, WST-1
Reported metric: survival rate (viability) of cancer cells, A375

Query: survival rate (viability) of cancer cells, A375; subject: CCOC(=O)C1=C(COCCN)NC(C)=C(C(=O)OC)C1c1ccccc1Cl (stereo not shown) [Amlodipine besylate (Norvase), Amlodipine besylate]
136.6675

What does the record list as survival rate (viability) of cancer cells, A375 for O=C([O-])C[C@H](O)C[C@H](O)/C=C/c1c(C2CC2)nc2ccccc2c1-c1ccc(F)cc1.O=C([O-])C[C@H](O)C[C@H](O)/C=C/c1c(C2CC2)nc2ccccc2c1-c1ccc(F)cc1.[Ca+2] ?
22.09

Form field: reported survival rate (viability) of cancer cells, A375 of CCOC(=O)C1=C(COCCN)NC(C)=C(C(=O)OC)C1c1ccccc1Cl (stereo not shown) [Amlodipine (Norvase), Amlodipine]
81.58

Looking for the measured survival rate (viability) of cancer cells, A375 of CC(C)c1c(C(=O)Nc2ccccc2)c(-c2ccccc2)c(-c2ccc(F)cc2)n1CC[C@@H](O)C[C@@H](O)CC(=O)[O-].CC(C)c1c(C(=O)Nc2ccccc2)c(-c2ccccc2)c(-c2ccc(F)cc2)n1CC[C@@H](O)C[C@@H](O)CC(=O)[O-].[Ca+2] , can you help?
23.01
